FYI, the data here is from ChEMBL document CHEMBL3797160.

TARGET_UNDER_TEST: Receptor-type tyrosine-protein kinase FLT3 (Homo sapiens) (UniProt P36888)
Sequence (P36888 whole entry): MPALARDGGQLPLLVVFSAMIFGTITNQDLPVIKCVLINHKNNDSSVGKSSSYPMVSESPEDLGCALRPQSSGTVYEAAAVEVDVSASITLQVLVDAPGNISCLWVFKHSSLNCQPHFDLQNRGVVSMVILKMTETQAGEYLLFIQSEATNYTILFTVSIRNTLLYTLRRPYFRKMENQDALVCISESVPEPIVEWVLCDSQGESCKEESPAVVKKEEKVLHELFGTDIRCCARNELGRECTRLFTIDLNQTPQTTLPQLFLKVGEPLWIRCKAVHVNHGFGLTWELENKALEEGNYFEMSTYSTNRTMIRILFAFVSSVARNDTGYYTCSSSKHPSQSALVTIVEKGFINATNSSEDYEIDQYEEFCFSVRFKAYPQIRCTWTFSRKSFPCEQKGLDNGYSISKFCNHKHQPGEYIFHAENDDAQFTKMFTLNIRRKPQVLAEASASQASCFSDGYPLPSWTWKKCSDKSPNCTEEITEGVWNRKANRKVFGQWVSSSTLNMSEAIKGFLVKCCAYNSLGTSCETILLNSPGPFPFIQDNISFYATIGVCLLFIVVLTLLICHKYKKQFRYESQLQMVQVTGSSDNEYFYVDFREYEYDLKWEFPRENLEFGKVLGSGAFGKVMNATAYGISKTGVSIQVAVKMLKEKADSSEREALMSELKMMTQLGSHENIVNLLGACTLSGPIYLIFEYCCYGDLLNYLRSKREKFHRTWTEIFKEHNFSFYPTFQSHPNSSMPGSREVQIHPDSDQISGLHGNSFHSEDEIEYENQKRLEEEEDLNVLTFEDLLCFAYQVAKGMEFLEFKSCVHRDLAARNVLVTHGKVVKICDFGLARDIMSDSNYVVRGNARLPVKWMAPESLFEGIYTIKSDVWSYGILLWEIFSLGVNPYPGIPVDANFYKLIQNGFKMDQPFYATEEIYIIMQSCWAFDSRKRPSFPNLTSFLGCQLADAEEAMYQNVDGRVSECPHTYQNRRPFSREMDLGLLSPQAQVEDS
MEASUREMENT_NOTES: Inhibition of FLT3 (unknown origin) at 10 uM after 1 hr by mobility shift assay
MEASUREMENT_KIND: inhibition (%)
Numbers only, in %.

Below are worked cases with known answers.
CN(C)CCn1cnnc1-c1cc(Oc2ccc(NC(=O)Nc3ccc(Cl)c(C(F)(F)F)c3)cc2F)ccn1 = 66.3
O=C(Nc1ccc(Oc2ccnc(-c3nncn3CCCN3CCOCC3)c2)c(F)c1)Nc1ccc(Cl)c(C(F)(F)F)c1 = 38.5
CCN(CC)CCn1cnnc1-c1cc(Oc2ccc(NC(=O)Nc3ccc(F)c(Cl)c3)cc2F)ccn1 = 59.6

# per-item lookup of inhibition; items listed below
1. CCN(CC)CCn1cnnc1-c1cc(Oc2ccc(NC(=O)Nc3ccc(Cl)c(C(F)(F)F)c3)cc2F)ccn1
2. CN(C)CCCn1cnnc1-c1cc(Oc2ccc(NC(=O)Nc3ccc(F)c(F)c3)cc2F)ccn1
3. CCN(CC)CCn1cnnc1-c1cc(Oc2ccc(NC(=O)Nc3ccc(F)c(F)c3)cc2F)ccn1

OUT:
1. 84.9
2. 44.3
3. 39

# per-item lookup of inhibition; items listed below
1. CN(C)CCCn1cnnc1-c1cc(Oc2ccc(NC(=O)Nc3ccc(Cl)c(C(F)(F)F)c3)cc2F)ccn1
2. CN(C)CCn1cnnc1-c1cc(Oc2ccc(NC(=O)Nc3ccccc3C(F)(F)F)cc2F)ccn1
3. CNC(=O)c1cc(Oc2ccc(NC(=O)Nc3ccc(Cl)c(C(F)(F)F)c3)cc2)ccn1 [SORAFENIB]
4. CCN(CC)CCn1cnnc1-c1cc(Oc2ccc(NC(=O)Nc3cccc(C(F)(F)F)c3)cc2F)ccn1
5. CN(C)CCCn1cnnc1-c1cc(Oc2ccc(NC(=O)Nc3ccc(F)c(Cl)c3)cc2F)ccn1
6. CN(C)CCn1cnnc1-c1cc(Oc2ccc(NC(=O)Nc3ccc(F)c(Cl)c3)cc2F)ccn1
7. CN(C)CCn1cnnc1-c1cc(Oc2ccc(NC(=O)Nc3cccc(C(F)(F)F)c3)cc2F)ccn1
8. CN(C)CCCn1cnnc1-c1cc(Oc2ccc(NC(=O)Nc3cccc(C(F)(F)F)c3)cc2F)ccn1

OUT:
1: 86.9; 2: 17.6; 3: 98.5; 4: 61; 5: 72.1; 6: 52.2; 7: 42.2; 8: 69.2

# per-item lookup of inhibition; items listed below
1. O=C(Nc1ccc(Oc2ccnc(-c3nncn3CCCN3CCOCC3)c2)c(F)c1)Nc1ccc(Cl)cc1Cl
2. CN(C)CCn1cnnc1-c1cc(Oc2ccc(NC(=O)Nc3ccc(F)c(F)c3)cc2F)ccn1

OUT:
22
13.5

###

MEASUREMENT_NOTES: Cytotoxicity against human WI38 cells after 72 hrs by MTT assay
Type: cell-based
RUN_CONDITIONS: WI-38, 72 h
MEASUREMENT_KIND: IC50 (µM)
Answers are plain numbers, in µM.

CN(C)CCCn1cnnc1-c1cc(Oc2ccc(NC(=O)Nc3ccc(Cl)cc3Cl)cc2F)ccn1 = 3.26

# per-item lookup of IC50; items listed below
1. CN(C)CCCn1cnnc1-c1cc(Oc2ccc(NC(=O)Nc3ccccc3C(F)(F)F)cc2F)ccn1
2. CN(C)CCn1cnnc1-c1cc(Oc2ccc(NC(=O)Nc3ccc(F)c(Cl)c3)cc2F)ccn1
3. CN(C)CCn1cnnc1-c1cc(Oc2ccc(NC(=O)Nc3cccc(C(F)(F)F)c3)cc2F)ccn1
4. CN(C)CCCn1cnnc1-c1cc(Oc2ccc(NC(=O)Nc3cccc(C(F)(F)F)c3)cc2F)ccn1

OUT:
1. 28.6
2. 7.58
3. 11.2
4. 11.6

# per-item lookup of IC50; items listed below
1. CN(C)CCn1cnnc1-c1cc(Oc2ccc(NC(=O)Nc3ccc(Cl)cc3Cl)cc2F)ccn1
2. CNC(=O)c1cc(Oc2ccc(NC(=O)Nc3ccc(Cl)c(C(F)(F)F)c3)cc2)ccn1
3. CN(C)CCCn1cnnc1-c1cc(Oc2ccc(NC(=O)Nc3ccc(Cl)c(C(F)(F)F)c3)cc2F)ccn1

OUT:
[10.4, 8.42, 7.91]

# per-item lookup of IC50; items listed below
1. CCN(CC)CCn1cnnc1-c1cc(Oc2ccc(NC(=O)Nc3ccccc3C(F)(F)F)cc2F)ccn1
2. O=C(Nc1ccc(Oc2ccnc(-c3nncn3CCCN3CCOCC3)c2)c(F)c1)Nc1ccc(Cl)c(C(F)(F)F)c1
3. Cn1cnnc1-c1cc(Oc2ccc(NC(=O)Nc3cccc(C(F)(F)F)c3)cc2F)ccn1
4. Cn1cnnc1-c1cc(Oc2ccc(NC(=O)Nc3ccc(Cl)c(C(F)(F)F)c3)cc2F)ccn1

OUT:
[23.5, 9.65, 12.6, 9.85]

# per-item lookup of IC50; items listed below
1. CN(C)CCn1cnnc1-c1cc(Oc2ccc(NC(=O)Nc3ccc(Cl)c(C(F)(F)F)c3)cc2F)ccn1
2. CCN(CC)CCn1cnnc1-c1cc(Oc2ccc(NC(=O)Nc3ccc(F)c(Cl)c3)cc2F)ccn1

OUT:
3.76
28.7

###

TARGET_UNDER_TEST: Proto-oncogene tyrosine-protein kinase receptor Ret (Homo sapiens) (UniProt P07949)
Sequence (P07949 whole entry): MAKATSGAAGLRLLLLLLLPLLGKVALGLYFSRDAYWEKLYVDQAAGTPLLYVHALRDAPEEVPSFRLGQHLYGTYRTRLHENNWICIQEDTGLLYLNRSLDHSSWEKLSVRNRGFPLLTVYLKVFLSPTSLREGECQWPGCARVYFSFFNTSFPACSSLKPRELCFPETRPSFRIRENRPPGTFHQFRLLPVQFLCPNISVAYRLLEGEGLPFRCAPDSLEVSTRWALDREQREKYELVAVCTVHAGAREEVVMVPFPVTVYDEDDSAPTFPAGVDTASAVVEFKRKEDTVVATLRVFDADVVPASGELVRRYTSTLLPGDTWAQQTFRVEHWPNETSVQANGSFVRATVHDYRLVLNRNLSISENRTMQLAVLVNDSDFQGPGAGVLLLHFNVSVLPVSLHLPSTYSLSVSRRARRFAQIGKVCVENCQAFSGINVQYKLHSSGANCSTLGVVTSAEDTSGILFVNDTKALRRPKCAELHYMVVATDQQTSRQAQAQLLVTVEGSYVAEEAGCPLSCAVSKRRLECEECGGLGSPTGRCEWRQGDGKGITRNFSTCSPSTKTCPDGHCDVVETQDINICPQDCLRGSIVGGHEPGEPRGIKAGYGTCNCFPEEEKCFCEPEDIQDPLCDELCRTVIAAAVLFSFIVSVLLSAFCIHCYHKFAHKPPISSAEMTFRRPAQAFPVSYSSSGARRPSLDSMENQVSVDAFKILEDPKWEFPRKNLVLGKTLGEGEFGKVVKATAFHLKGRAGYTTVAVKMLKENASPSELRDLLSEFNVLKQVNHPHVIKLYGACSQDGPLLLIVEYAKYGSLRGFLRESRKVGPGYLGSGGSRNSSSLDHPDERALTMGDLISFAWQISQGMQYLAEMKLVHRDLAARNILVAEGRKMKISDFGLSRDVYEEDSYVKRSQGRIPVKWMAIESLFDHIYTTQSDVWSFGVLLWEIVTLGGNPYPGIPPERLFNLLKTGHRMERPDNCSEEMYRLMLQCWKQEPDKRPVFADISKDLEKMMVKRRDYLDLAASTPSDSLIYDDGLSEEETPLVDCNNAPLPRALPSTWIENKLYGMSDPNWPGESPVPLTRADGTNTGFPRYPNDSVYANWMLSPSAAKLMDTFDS
MEASUREMENT_NOTES: Inhibition of RET (unknown origin) at 10 uM after 1 hr by mobility shift assay
MEASUREMENT_KIND: inhibition (%)
Numbers only, in %.

Below are worked cases with known answers.
CN(C)CCn1cnnc1-c1cc(Oc2ccc(NC(=O)Nc3cccc(C(F)(F)F)c3)cc2F)ccn1 = 77.7
CN(C)CCCn1cnnc1-c1cc(Oc2ccc(NC(=O)Nc3ccc(F)c(F)c3)cc2F)ccn1 = 30.9

Lab note: next compound to report on.
IN: For the compound "O=C(Nc1ccc(Oc2ccnc(-c3nncn3CCCN3CCOCC3)c2)c(F)c1)Nc1ccc(Cl)cc1Cl" , what inhibition is on record?
OUT: 45.6
